# PROCEDURE_SUMMARY: Ticagrelor-diltiazem interaction study: pharmacokinetic parameters of ticagrelor and AR-C124910XX
# PROTOCOL_CONDITIONS: human, plasma, oral, 90 mg
ENDPOINT_LABEL: half-life (h)
Value expressed in h; do not type the unit.

Query (molecule): `CCCSc1nc(N[C@@H]2C[C@H]2c2ccc(F)c(F)c2)c2nnn([C@@H]3C[C@H](OCCO)[C@@H](O)[C@H]3O)c2n1` ; field requested: half-life
8.3
